SYSTEM: T1, human transferrin receptor (hTfR) (human, UniProt P02786 89-760)
T1 construct: Recombinant hTfR; at pH 7.4 captured on the chip by an anti-His tag antibody, at pH 6.0 immobilized on an NTA chip, so it carries a His tag; also called human TfR; TfR1
T1 sequence (P02786 89-760 limits assumed): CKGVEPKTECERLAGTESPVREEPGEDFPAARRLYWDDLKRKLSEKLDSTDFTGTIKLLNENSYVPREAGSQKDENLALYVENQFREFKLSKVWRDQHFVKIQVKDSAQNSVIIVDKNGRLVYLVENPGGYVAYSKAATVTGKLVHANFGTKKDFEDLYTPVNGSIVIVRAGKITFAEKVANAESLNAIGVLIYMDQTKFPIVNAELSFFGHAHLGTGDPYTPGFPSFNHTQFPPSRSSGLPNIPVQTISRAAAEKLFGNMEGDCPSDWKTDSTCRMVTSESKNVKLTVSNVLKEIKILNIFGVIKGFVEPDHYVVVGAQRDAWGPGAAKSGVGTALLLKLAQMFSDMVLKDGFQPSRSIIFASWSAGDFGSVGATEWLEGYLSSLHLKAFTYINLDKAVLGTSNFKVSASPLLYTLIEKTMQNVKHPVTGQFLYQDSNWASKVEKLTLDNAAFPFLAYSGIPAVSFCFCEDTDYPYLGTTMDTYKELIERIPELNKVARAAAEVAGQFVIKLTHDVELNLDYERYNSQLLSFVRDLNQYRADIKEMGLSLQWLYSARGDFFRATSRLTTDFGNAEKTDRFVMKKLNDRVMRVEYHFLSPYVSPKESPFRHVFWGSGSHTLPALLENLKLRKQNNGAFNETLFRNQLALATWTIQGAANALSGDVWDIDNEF
ASSAY PROTOCOL: SPR (Biacore T200), pH 7.4, hTfR on chip
Numbered stars: 1 amine (or outer) side, 2 acyl side, 3 side chain; on linkers, the order of the positions; unused ones are H or OH. Bridge positions count the residues as written; N and C are the ends. Square brackets hold non-standard residues; d marks the D form. Primed or numbered codes have the meaning given here. F4aao = 4-(carboxymethoxy)-L-phenylalanine, O=C([C@H](Cc1ccc(OCC(=O)[*:3])cc1)N[*:1])[*:2]; NMePhe(4-COOH) = CN[C@@H](Cc1ccc(C(=O)O)cc1)C(=O)O; Tyr(Me) = COc1ccc(C[C@H](N[*:1])C(=O)[*:2])cc1; NMePhe(3-Cl) = CN[C@@H](Cc1cccc(Cl)c1)C(=O)O; NMeW = CN[C@@H](Cc1c[nH]c2ccccc12)C(=O)O; NMeY = CN[C@@H](Cc1ccc(O)cc1)C(=O)O; PEG4c(3) = PEG4 linker acid; PEG4c″ = not defined here
So I've got a bunch of binders here, and I need their pKd values.
Answers are plain numbers, as −log10 of the molar value.

Examples from the recorded data:
AVXVXNYXIIQRFXC (as printed: A-V-MeF3C-V-MeW-N-Y-F4OMe-I-I-Q-R-F-MeY-C; linker PEG4c-NH2; cyclic (ClAc-Ala1 thioether to Cys15)) [894_0637]
9.07
AVXVXNYXIIKRFXC (as printed: A-V-MeF3C-V-MeW-N-Y-F4OMe-I-I-K-R-F-MeY-C; linker PEG4c-NH2; cyclic (ClAc-Ala1 thioether to Cys15)) [894_0636]
9.65
{CH2CO}-AV[NMePhe(3-Cl)]V[NMeW]NY[F4aao]IIKRF[NMeY]C-{PEG4c(3)-NH2} (thioether N-15) [894_0644]
9.49
{CH2CO}-AV[NMePhe(3-Cl)]V[NMeW]NY[F4aao]IIKRF[NMePhe(4-COOH)](PEG4c(3))C-{PEG4c(3)-NH2} (thioether N-15) [894_0647]
9.85
{CH2CO}-AV[NMePhe(3-Cl)]V[NMeW]NR[Tyr(Me)]IIQRF[NMeY]C-{PEG4c(3)-NH2} (thioether N-15) [894_0642]
7.69

Okay, next one:
pKd measured on {CH2CO}-AV[NMePhe(3-Cl)]V[NMeW]NR[Tyr(Me)]IIKRF[NMeY]C-{PEG4c″-NH2} (thioether N-15; reading uncertain) [894_0641] = 8.42
